System: 521955-158-R2-J5-PDC complex spheroid growth, % test/control;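 note: spheroids exposed to agents for 7 days before readout; 100% = DMSO vehicle control viability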
experimental_details: Anticancer human tumor 521955-158-R2-J5-PDC patient-derived pancreatic carcinoma cell line growth inhibition [Asc]
settings: second compound 0.0316 µM; first compound 3.16 µM; active compounds read low
In this section we review reported viability, T/C values for a set of compounds.
Express your answer in %, writing the number without its unit.

Example results:
C=C(F)C(=O)N1CCN(c2nc(OCC3CCCN3C)nc3c2CCN(c2cccc4cccc(Cl)c24)C3)CC1CC#N (centres undefined) + CNC(C)C(=O)NC1CN(S(=O)(=O)c2cccc(S(=O)(=O)N3CCC4CCC(C(=O)NC(c5ccccc5)c5ccccc5)N4C(=O)C(NC(=O)C(C)NC)C3)c2)CCC2CCC(C(=O)NC(c3ccccc3)c3ccccc3)N2C1=O :: 99.7
C=CC(=O)N1CCN(c2nc(=O)n(-c3c(C)ccnc3C(C)C)c3nc(-c4c(O)cccc4F)c(F)cc23)C(C)C1 (centres undefined) + CNC(C)C(=O)NC1CN(S(=O)(=O)c2cccc(S(=O)(=O)N3CCC4CCC(C(=O)NC(c5ccccc5)c5ccccc5)N4C(=O)C(NC(=O)C(C)NC)C3)c2)CCC2CCC(C(=O)NC(c3ccccc3)c3ccccc3)N2C1=O :: 115
C#Cc1c(F)ccc2cc(O)cc(-c3ncc4c(N5CC6CCC(C5)N6)nc(OCC56CCCN5CC(F)C6)nc4c3F)c12 (centres undefined) + CNC(C)C(=O)NC1CN(S(=O)(=O)c2cccc(S(=O)(=O)N3CCC4CCC(C(=O)NC(c5ccccc5)c5ccccc5)N4C(=O)C(NC(=O)C(C)NC)C3)c2)CCC2CCC(C(=O)NC(c3ccccc3)c3ccccc3)N2C1=O :: 17.7

Now for another entry.
Asked: Would you mind telling me what viability, T/C value was observed for O=C(c1cc(Cc2n[nH]c(=O)c3ccccc23)ccc1F)N1CCN(C(=O)C2CC2)CC1 + CNC(C)C(=O)NC1CN(S(=O)(=O)c2cccc(S(=O)(=O)N3CCC4CCC(C(=O)NC(c5ccccc5)c5ccccc5)N4C(=O)C(NC(=O)C(C)NC)C3)c2)CCC2CCC(C(=O)NC(c3ccccc3)c3ccccc3)N2C1=O ?
Given back: 64.9
